Source: patent US11352391B2

SYSTEM NAME: human NK2 Receptor (hNK2R) (Homo sapiens, UniProt P21452)
Sequence (P21452 1-398): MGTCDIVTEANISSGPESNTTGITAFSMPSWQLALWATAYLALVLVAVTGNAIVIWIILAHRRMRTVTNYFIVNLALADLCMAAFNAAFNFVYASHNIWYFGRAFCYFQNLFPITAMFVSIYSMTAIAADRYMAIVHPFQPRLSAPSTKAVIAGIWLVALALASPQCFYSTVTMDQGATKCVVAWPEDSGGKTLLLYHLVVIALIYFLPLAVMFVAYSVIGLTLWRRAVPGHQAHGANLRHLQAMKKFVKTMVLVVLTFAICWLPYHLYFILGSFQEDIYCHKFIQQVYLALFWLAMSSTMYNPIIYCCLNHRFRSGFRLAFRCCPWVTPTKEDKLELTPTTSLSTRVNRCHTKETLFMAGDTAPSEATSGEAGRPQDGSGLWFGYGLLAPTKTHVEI
TEST NAME: [125I]-NKA radioligand competition binding to human recombinant NK2Rs (CHO-hNK2 membranes)
CONDITION PARAMETERS: ratio of Kis hNK1R/hNK2R
Where a SMILES comes first, the peptide text is derived from it.
QUANTITY MEASURED: hNK2 selectivity ratio

Task: Indicate its recorded hNK2 selectivity ratio; the compound in question is CCCC[C@H](NC(=O)[C@H](CC(C)C)N(C)C(=O)CNC(=O)[C@@H](NC(=O)[C@H](Cc1ccccc1)NC(=O)[C@H](CCCNC(=N)N)NC(=O)[C@@H](N)CC(=O)O)C(C)C)C(N)=O [Compound B, Asp-Arg-Phe-Val-Gly-(NMe-Leu)-Nle-NH2] (HELM PEPTIDE1{D.R.F.V.G.[meL].[Nle].[am]}$$$$V2.0; N-terminus assumed)
Output: 557.83

Task: Indicate its recorded hNK2 selectivity ratio; the compound in question is CSCC[C@H](NC(=O)[C@H](CC(C)C)N(C)C(=O)CNC(=O)[C@@H](NC(=O)[C@H](Cc1ccccc1)NC(=O)[C@H](CCCNC(=N)N)NC(=O)[C@@H](N)CC(=O)O)C(C)C)C(N)=O [C, Asp-Arg-Phe-Val-Gly-(NMe-Leu)-Met-NH2] (HELM PEPTIDE1{D.R.F.V.G.[meL].M.[am]}$$$$V2.0; N-terminus assumed)
Output: 167.49

Task: Indicate its recorded hNK2 selectivity ratio; the compound in question is CSCC[C@H](NC(=O)[C@H](CC(C)C)NC(=O)CCNC(=O)[C@@H](NC(=O)[C@H](Cc1ccccc1)NC(=O)[C@H](CCCNC(=N)N)NC(=O)[C@@H](N)CC(=O)O)C(C)C)C(N)=O [I, Asp-Arg-Phe-Val-(β-Ala)-Leu-Met-NH2] (HELM PEPTIDE1{D.R.F.V.[bAla].L.M.[am]}$$$$V2.0; N-terminus assumed)
Output: 108.27
